Biological target: 5-HT2B receptor (rat stomach fundus) (Rattus norvegicus, UniProt P30994)
Sequence (P30994 whole entry): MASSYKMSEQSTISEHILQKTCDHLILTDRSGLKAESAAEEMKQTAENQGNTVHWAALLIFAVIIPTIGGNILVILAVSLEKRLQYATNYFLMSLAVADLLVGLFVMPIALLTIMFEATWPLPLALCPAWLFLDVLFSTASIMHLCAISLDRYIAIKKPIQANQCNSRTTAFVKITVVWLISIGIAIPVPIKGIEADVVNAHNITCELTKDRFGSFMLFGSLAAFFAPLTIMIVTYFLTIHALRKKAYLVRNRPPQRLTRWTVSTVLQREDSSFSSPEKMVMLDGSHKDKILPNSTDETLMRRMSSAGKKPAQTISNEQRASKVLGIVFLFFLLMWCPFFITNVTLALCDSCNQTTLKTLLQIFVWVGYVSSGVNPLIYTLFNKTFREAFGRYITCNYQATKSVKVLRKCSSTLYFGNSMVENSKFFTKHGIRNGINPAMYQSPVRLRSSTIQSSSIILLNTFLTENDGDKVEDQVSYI
Conditions: rat stomach fundus; vs serotonin; ± standard error; read-out: 5-HT2B (Fundus) -log KB (converted)
Structures can show the parent of a compound that is named as a salt.
EXPERIMENTAL_ENDPOINT: Kb (nM)
Number only, in nM; omit the unit.

Illustrative cases are given below, each with its answer.
{"columns": ["MOLECULE", "Kb / nM"],
 "data": [
  ["COc1ccc(CC2NCCc3c2[nH]c2ccc(C(C)(C)C)cc32)cc1OC (centres unmarked) [Example 8, hydrochloride]", 3.55],
  ["CC(C)c1ccc2[nH]c3c(c2c1)CCNC3C(C)c1cccc2ccccc12 (racemic) [Example 50, hydrochloride]", 3.98],
  ["c1ccc2c(CC3NCCc4c3[nH]c3c4ccc4ccccc43)cccc2c1 (racemic)", 1.2]
]}

Exercise: Query the reported Kb for 5-HT2B receptor (rat stomach fundus) (Rattus norvegicus, UniProt P30994); item: COc1cc(CC2NCCc3c2[nH]c2ccc(C)cc32)cc([N+](=O)[O-])c1OC (centres unmarked) [Example 28, hydrochloride]
Key: 2.82

Exercise: Try CCCOc1ccc(CC2NCCc3c2[nH]c2ccc(C)cc32)cc1OC (centres unmarked) next.
Key: 1.12

Exercise: Another: CCc1ccc2[nH]c3c(c2c1)CCNC3C(C)c1ccc(OC)c(OC)c1 (racemic)
Key: 0.275

====

Target: Human 5-HT2B (Homo sapiens)
Construct: expressed in transfected cells
Assay: [3H]Serotonin radioligand binding, human 5-HT2B
Details: read-out: Ki Human 5-HT2B; [3H]Serotonin; 5-HT2B cells; AVG
EXPERIMENTAL_ENDPOINT: pKi
Recall that pKi is obtained by taking minus log10 of the concentration measured in molar.

Exercise: State its pKi on Human 5-HT2B (Homo sapiens): CC(C)n1cc2c3c(cccc31)C1CC(C(=O)NC3CCCC3O)CN(C)C1C2 (stereo not shown)
Key: 8.65

====

# Kb annotations
Biological target: 5-HT2B receptor (rat stomach fundus) (Rattus norvegicus, UniProt P30994);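 also: isometric contraction of isolated male Wistar rat stomach fundus strips, serotonin concentration-response curves after antagonist incubation, KB from dose ratio of agonist potency versus control curve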
Conditions: rat stomach fundus; vs serotonin; ± standard error; read-out: 5-HT2B (Fundus) -log KB (converted)
Where a name gives a salt, the structure may show the parent alone.
Write the value in nM as a bare number.

Example entries and their recorded answers appear below.
{"columns": ["MOLECULE", "EXPERIMENTAL_ENDPOINT", "SCALE_UNIT", "MEAS_VALUE"],
 "data": [
  ["COc1ccc(CC2NCCc3c2[nH]c2ccc(C)c(F)c32)cc1OC (stereo not shown) [Example 9]", "Kb", "nM", 0.501],
  ["Cc1ccc2[nH]c3c(c2c1)CCNC3Cc1cccc2ccccc12 (racemic) [Example 51, hydrochloride]", "Kb", "nM", 0.178],
  ["COc1ccc(C(C)C2NCCc3c2[nH]c2ccc(C)cc32)cc1OC (racemic) [Example 40]", "Kb", "nM", 0.178]
]}

Lab note: next molecule to report on.
Exercise: Look up Kb: CC(C)(C)c1ccc2[nH]c3c(c2c1)CCNC3Cc1cccc2ccccc12 (racemic) [Example 61]
Key: 3.63

====

Below: a set of entries, each annotated with reported pKi.
Molecular target: Human 5-HT2B (Homo sapiens, UniProt P41595)
Construct: expressed in transfected cells
Sequence (P41595 whole entry): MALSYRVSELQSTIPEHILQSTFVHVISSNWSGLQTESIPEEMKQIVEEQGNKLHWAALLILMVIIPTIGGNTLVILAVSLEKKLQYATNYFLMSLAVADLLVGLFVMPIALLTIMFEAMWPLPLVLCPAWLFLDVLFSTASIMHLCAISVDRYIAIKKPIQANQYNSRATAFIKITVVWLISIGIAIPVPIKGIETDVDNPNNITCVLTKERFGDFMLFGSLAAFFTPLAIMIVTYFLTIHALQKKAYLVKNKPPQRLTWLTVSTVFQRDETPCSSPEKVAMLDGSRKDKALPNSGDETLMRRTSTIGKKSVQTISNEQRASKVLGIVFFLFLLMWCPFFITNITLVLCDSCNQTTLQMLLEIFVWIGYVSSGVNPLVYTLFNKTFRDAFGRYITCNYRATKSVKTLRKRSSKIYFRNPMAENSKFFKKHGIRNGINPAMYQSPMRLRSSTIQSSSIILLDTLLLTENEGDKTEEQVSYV
Experiment: [3H]Serotonin radioligand binding, human 5-HT2B;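 also: competition of tritiated serotonin binding to cell membranes, bound radioactivity on filters counted by liquid scintillation, IC50 from logistic fits converted to Ki with the Cheng-Prusoff equation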
Settings: [3H]Serotonin; 5-HT2B cells; AVG; read-out: Ki Human 5-HT2B
Please keep in mind that pKi is minus log10 of the molar concentration; only the number is needed.

Exercise: Return reported pKi; argument: Cc1ccc2c3c([nH]c2c1Cl)CNCC3 [drawing 177]
Key: 8.57
